assay: Emulsion stability testing of nonionic emulsifiers, Hallcomid solvent series; assay type: physicochemical; conditions: 2,4-D diester 480 g/L in Hallcomid M-8-10, 34 ppm water
Checkbox rule: 24 h separation, amount lower than 9 mL = TRUE; 24 h separation, amount not lower than 9 mL = FALSE.

[in] Could you please tell me whether 24 h separation, amount recorded for C=CCCCCCCCCOCCOCCOCCOCCOCCOCCOCCO is less than 9 mL?
[out] TRUE

[in] Find out if reported 24 h separation, amount for C=CCCCCCCCCOCCOCCOCCO is less than 9 mL
[out] FALSE

[in] State whether 9 mL exceeds 24 h separation, amount recorded for CCC=CCCCCCCCCOCCOCCOCCOCCOCCOCCOCCOCCOCCOCCOCCOCCOCCOCCOCCO (mixture of isomers) .
[out] TRUE
